These data points were gathered from the supplement of paper PMC4862054.

Test system: MDA-MB-453
Experiment: normalised viability (% of control), CellTiter-Blue; higher = more viable cells (about 100 = DMSO control)
Details: incubation time: 72 h
Reported Endpoint: normalised viability

Please review the entries below; each comes with its answer.
C#Cc1cccc(Nc2ncnc3cc(OC)c(OCCCCCCC(=O)NO)cc23)c1 [CUDC-101] (3000 nM)
4.71%
CC(C)(C)c1cc(NC(=O)Nc2ccc(-c3cn4c(n3)sc3cc(OCCN5CCOCC5)ccc34)cc2)no1 [Quizartinib] (300 nM)
110%
COc1cc(Nc2ncc(F)c(Nc3ccc4c(n3)NC(=O)C(C)(C)O4)n2)cc(OC)c1OC [R406] (3000 nM)
110%
CC[C@@]1(O)C(=O)OCc2c1cc1n(c2=O)Cc2cc3ccccc3nc2-1 [Camptothecin] (1500 nM)
21.5%
CS(=O)(=O)OCCCCOS(C)(=O)=O [Busulfan] (30000 nM)
117%
COC1=CC(c2cc3ccccc3[nH]2)=N/C1=C\c1[nH]c(C)cc1C [Obatoclax] (3000 nM)
33.4%
O=P(O)(NCCCl)NCCCl [Ifosfamide mustard] (3000 nM)
114%
CCCC(CCC)C(=O)O [Valproic acid] (3000 nM)
103%
c1ccc(C2CN3CCSC3=N2)cc1 (stereo unspecified) [Tetramisole] (3000 nM)
116%
CC(=O)O[C@H]1C(=O)[C@@]2(C)[C@H]([C@H](OC(=O)c3ccccc3)[C@]3(O)C[C@H](OC(=O)[C@H](O)[C@@H](NC(=O)c4ccccc4)c4ccccc4)C(C)=C1C3(C)C)[C@]1(OC(C)=O)CO[C@@H]1C[C@@H]2O [Paclitaxel] (300 nM)
24.7%

Proceeding to the next compound to report its normalised viability.
Fill blank: measured normalised viability of the compound COC1=C2C[C@@H](C)C[C@H](OC)[C@H](O)[C@@H](C)/C=C(\C)[C@H](OC(N)=O)[C@@H](OC)/C=C\C=C(/C)C(=O)NC(=CC1=O)C2=O [Geldanamycin] (3000 nM) is ____.
8.03%

----------
Tested on: Hs578T
Test: normalised viability (% of control), CellTiter-Blue; higher = more viable cells (about 100 = DMSO control)
Conditions: 10 nM; incubation time: 72 h
The following molecules are listed with their measured normalised viability values.
Write it as a number; the unit % goes unstated.

The examples below pair each entry with its known result.
CN1CCN(c2ccc3nc(-c4c(N)c5c(F)cccc5[nH]c4=O)[nH]c3c2)CC1 [Dovitinib]
106
C[C@@]1(C(=O)Nc2ccc(F)nc2)CCCN1c1nc(Nc2cc(C3CC3)n[nH]2)c2cccn2n1
114
COC1=C2C[C@@H](C)C[C@H](OC)[C@H](O)[C@@H](C)/C=C(\C)[C@H](OC(N)=O)[C@@H](OC)/C=C\C=C(/C)C(=O)NC(=CC1=O)C2=O [Geldanamycin]
122

Next up:
Provide value of normalised viability for this record tested with Hs578T: O=C(c1ccc(OCCN2CCCCC2)cc1)c1c(-c2ccc(O)cc2)sc2cc(O)ccc12 [Raloxifene]
112

----------
System: CAL-51
Assay: normalised viability (% of control), CellTiter-Blue; higher = more viable cells (about 100 = DMSO control)
Conditions: incubation time: 72 h
Reported Endpoint: normalised viability (%)
Output spec: scalar in %, unitless text.

Examples with answers:
O=c1[nH]cc(F)c(=O)[nH]1 [Fluorouracil] (1000 nM)
102
COC(=O)C[C@](O)(CCCC(C)(C)O)C(=O)O[C@@H]1C(OC)=C[C@]23CCCN2CCc2cc4c(cc2[C@H]13)OCO4 [Omacetaxine mepesuccinate] (1000 nM)
4.98
O=P(O)(NCCCl)NCCCl [Ifosfamide mustard] (1000 nM)
107
O=c1[nH]c(=O)n([C@H]2C[C@H](O)[C@@H](CO)O2)cc1F [Floxuridine] (1000 nM)
31.9
Cn1c(=O)c(F)c(Nc2ccc(I)cc2F)c2c(=O)n(C[C@@H](O)CO)cnc21 [TAK-733] (100 nM)
77.7

Could you now look at the following molecule, please?
Data request, read-out normalised viability, for COc1ncc(-c2ccc3nccc(-c4ccnnc4)c3c2)cc1NS(=O)(=O)c1ccc(F)cc1F (100 nM)
17.2
